Values compiled from the supplement of paper PMC9112550.

- Tested on: Escherichia coli TOP10;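 also: peptides expressed intracellularly from a pBAD plasmid library in pooled LB shake-flask culture, induced with 0.3% L-arabinose, DNA abundance read by NGS, three biological replicates, DESeq2 with apeglm shrinkage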
- Measurement description: shrunken log2 fold change of peptide-encoding DNA abundance (4.5 h post-induction vs induction); higher = less antimicrobial activity (less host growth inhibition)
- Assay setup: time post-induction: 4.5 h; library: site-saturation at positions 5, 18, 19, 20
Listed below: shrunken log2 fold change values for each entry.
Result type: shrunken log2 fold change

>>> df
           ordered_residues  measured_result
 0  RRIRYRPPRLPRPRPRPMTKPRP           0.0153
 1  RRIRIRPPRLPRPRPRPIALPRP           -0.149
 2  RRIRRRPPRLPRPRPRPYQGPRP         -0.00892
 3  RRIRVRPPRLPRPRPRPPPFPRP            0.375
 4  RRIRERPPRLPRPRPRPLRLPRP            0.304
 5  RRIRTRPPRLPRPRPRPMWSPRP          -0.0629
 6  RRIRERPPRLPRPRPRPPATPRP             0.35
 7  RRIRWRPPRLPRPRPRPECNPRP            0.457
 8  RRIRIRPPRLPRPRPRPHHAPRP           0.0597
 9  RRIRFRPPRLPRPRPRPNICPRP           -0.252
10  RRIRLRPPRLPRPRPRPFCMPRP           -0.623
11  RRIRLRPPRLPRPRPRPALMPRP            0.306
12  RRIRDRPPRLPRPRPRPNNNPRP           -0.667
13  RRIRCRPPRLPRPRPRPCKVPRP           -0.147
14  RRIRPRPPRLPRPRPRPEYYPRP           -0.335
15  RRIRIRPPRLPRPRPRPGEAPRP          -0.0281
16  RRIRPRPPRLPRPRPRPWNRPRP            0.122
17  RRIRARPPRLPRPRPRPGLTPRP            0.686
18  RRIRWRPPRLPRPRPRPTGLPRP           0.0239
19  RRIRWRPPRLPRPRPRPSDPPRP          0.00652
20  RRIRCRPPRLPRPRPRPMRMPRP             0.22
21  RRIRMRPPRLPRPRPRPHLIPRP            0.133
22  RRIRERPPRLPRPRPRPPDCPRP           0.0792
23  RRIRIRPPRLPRPRPRPCSQPRP           -0.226
24  RRIRRRPPRLPRPRPRPFVHPRP           0.0512
25  RRIRQRPPRLPRPRPRPLRGPRP            0.664
